Below: a set of entries, each annotated with reported viability, T/C.
- Tested on: 616215-338-R-J1-PDC complex spheroid viability
- Assay Remarks: Anticancer human tumor 616215-338-R-J1-PDC patient-derived colon adenocarcinoma cell line growth inhibition [RAS]
- Measurement Setup: second compound 1 µM; first compound 0.03 µM; stronger effect = lower value
- Excerpt: RAS pathway inhibitors in Combinations in Complex Spheroids A high-throughput screen of multi-cell type tumor spheroids was designed to identify active combinations of RAS pathway inhibitors and targeted small molecules. Complex spheroids include a stromal component modeled by human endothelial cells (HUVEC) and fibroblasts modeled by human mesenchymal stem cells (MSCs). […] Compounds. […] If the clinical Cmax for an agent had not been determined, the highest concentration tested was 10 microM. […]
Metric: viability, T/C (%)

[[record]]
molecule = "CC1(C)CCC(Nc2ncc(C(F)(F)F)c(-c3c[nH]c4c(P(C)(C)=O)c(C#N)ccc34)n2)CN1 (centres undefined) + C#Cc1c(F)ccc2cc(O)cc(-c3ncc4c(N5CC6CCC(C5)N6)nc(OCC56CCCN5CC(F)C6)nc4c3F)c12"
metric = "viability, T/C"
unit_abbreviation = "%"
numeric_result = 31.2

[[record]]
molecule = "CC1(C)CCC(Nc2ncc(C(F)(F)F)c(-c3c[nH]c4c(P(C)(C)=O)c(C#N)ccc34)n2)CN1 (centres undefined) + C=CC(=O)N1CCN(c2nc(OCC3CCCN3C)nc3c(F)c(-c4nc(N)cc(C)c4C(F)(F)F)c(Cl)cc23)C(C)C1"
metric = "viability, T/C"
unit_abbreviation = "%"
numeric_result = 33.8

[[record]]
molecule = "CCc1c2c(nc3ccc(O)cc13)-c1cc3c(c(=O)n1C2)COC(=O)[C@]3(O)CC + C#Cc1c(F)ccc2cc(O)cc(-c3ncc4c(N5CC6CCC(C5)N6)nc(OCC56CCCN5CC(F)C6)nc4c3F)c12"
metric = "viability, T/C"
unit_abbreviation = "%"
numeric_result = 30.5

[[record]]
molecule = "CCc1c2c(nc3ccc(O)cc13)-c1cc3c(c(=O)n1C2)COC(=O)[C@]3(O)CC + C=CC(=O)N1CCN(c2nc(OCC3CCCN3C)nc3c(F)c(-c4nc(N)cc(C)c4C(F)(F)F)c(Cl)cc23)C(C)C1"
metric = "viability, T/C"
unit_abbreviation = "%"
numeric_result = 28.2


###

- Test system: 616215-338-R-J1-PDC complex spheroid viability
- Assay Remarks: Anticancer human tumor 616215-338-R-J1-PDC cell line growth inhibition [RAS];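 note: spheroids exposed to agents for seven days before viability readout; 100% = DMSO vehicle control viability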
- Measurement Setup: second compound 0.03 µM; first compound 0.01 µM; stronger effect = lower value
Metric: viability, T/C (%)

[[record]]
compound = "CCN1CCN(Cc2ccc(Nc3ncc(F)c(-c4cc(F)c5nc(C)n(C(C)C)c5c4)n3)nc2)CC1 + CCn1c(-c2cc(N3CCN(C)CC3)cnc2C(C)OC)c2c3cc(ccc31)-c1csc(n1)CC(NC(=O)C1CC1C)C(=O)N1CCCC(N1)C(=O)OCC(C)(C)C2"
test_system = "616215-338-R-J1-PDC complex spheroid viability"
unit_abbreviation = "%"
numeric_result = 38.1

[[record]]
compound = "C=CC(=O)N1CCN(c2nc(OCC3CCCN3C)nc3c(F)c(-c4nc(N)cc(C)c4C(F)(F)F)c(Cl)cc23)C(C)C1 (centres undefined) + CCn1c(-c2cc(N3CCN(C)CC3)cnc2C(C)OC)c2c3cc(ccc31)-c1csc(n1)CC(NC(=O)C1CC1C)C(=O)N1CCCC(N1)C(=O)OCC(C)(C)C2"
test_system = "616215-338-R-J1-PDC complex spheroid viability"
unit_abbreviation = "%"
numeric_result = 55.5

[[record]]
compound = "O=C(c1ccc(F)c(F)c1Nc1ccc(I)cc1F)N1CC(O)([C@@H]2CCCCN2)C1 + CCn1c(-c2cc(N3CCN(C)CC3)cnc2C(C)OC)c2c3cc(ccc31)-c1csc(n1)CC(NC(=O)C1CC1C)C(=O)N1CCCC(N1)C(=O)OCC(C)(C)C2"
test_system = "616215-338-R-J1-PDC complex spheroid viability"
unit_abbreviation = "%"
numeric_result = 30.3

[[record]]
compound = "C=CC(=O)N1CCN(c2nc(OCC3CCCN3C)nc3c(F)c(-c4nc(N)cc(C)c4C(F)(F)F)c(Cl)cc23)C(C)C1 (centres undefined) + CCn1c(-c2cccnc2C(C)OC)c2c3cc(ccc31)N1CCOC(CC(NC(=O)C(C(C)C)N(C)C(=O)C3(F)CCN(C(=O)C#CC(C)(C)N(C)C)CC3)C(=O)N3CCCC(N3)C(=O)OCC(C)(C)C2)C1"
test_system = "616215-338-R-J1-PDC complex spheroid viability"
unit_abbreviation = "%"
numeric_result = 110

